target_or_system: UniProt:P19440
method_summary: D-GpNA Hydrolysis Assay (release of pNA, 405 nm, pH 7.4)
condition_label: read-out: Hydrolysis D-GpNA Kii; D-GpNA substrate; Table 2
Measured Ki, listed per entry.
property: Ki (µM)

- structure_smiles_string: "COc1ccc(Cc2nnc(NS(=O)(=O)c3ccc(Cl)cc3)s2)cc1"
  property: "Ki"
  test_value: 5530
- structure_smiles_string: "COc1ccc(Cc2nnc(NS(=O)(=O)c3cccc4ccccc34)s2)cc1"
  property: "Ki"
  test_value: 161

====

target_or_system: Human GGT1 (hGGT) (Homo sapiens, UniProt P19440)
Sequence (P19440 381-569 limits assumed): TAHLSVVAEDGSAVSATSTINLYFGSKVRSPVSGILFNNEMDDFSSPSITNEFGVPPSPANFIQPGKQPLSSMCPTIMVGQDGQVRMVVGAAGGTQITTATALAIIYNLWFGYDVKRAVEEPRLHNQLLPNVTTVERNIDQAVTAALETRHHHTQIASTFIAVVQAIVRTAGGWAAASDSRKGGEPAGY
Sequence (P19440 27-380 limits assumed): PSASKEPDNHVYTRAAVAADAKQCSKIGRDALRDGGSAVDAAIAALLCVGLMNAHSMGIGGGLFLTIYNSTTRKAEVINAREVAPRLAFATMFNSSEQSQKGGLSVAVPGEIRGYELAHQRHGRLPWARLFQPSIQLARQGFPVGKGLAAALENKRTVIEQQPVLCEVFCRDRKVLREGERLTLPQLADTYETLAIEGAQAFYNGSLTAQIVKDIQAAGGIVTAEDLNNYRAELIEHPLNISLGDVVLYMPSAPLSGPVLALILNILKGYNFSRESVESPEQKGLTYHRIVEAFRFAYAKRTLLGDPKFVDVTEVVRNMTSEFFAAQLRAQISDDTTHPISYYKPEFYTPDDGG
method_summary: D-GpNA Hydrolysis Assay (release of pNA, 405 nm, pH 7.4)
Measured Ki, listed per entry.
property: Ki (µM)

- molecule: "Nc1ccc(S(=O)(=O)Nc2nnc(Cc3ccc(Cl)c(Cl)c3)s2)cc1 [Compound 29]"
  unit_name: "µM"
  test_value: 32
- molecule: "N[C@@H](CCC(=O)N[C@@H](CS)C(=O)NCC(=O)O)C(=O)O [GSH, glutathione, reference compound]"
  unit_name: "µM"
  test_value: 10
- molecule: "COc1ccc(Cc2nnc(NS(=O)(=O)c3ccc(C(C)(C)C)cc3)s2)cc1 [Compound 7]"
  unit_name: "µM"
  test_value: 341
- molecule: "Nc1ccc(Cc2nnc(NS(=O)(=O)c3ccc(N)cc3)s2)cc1 [Compound 23]"
  unit_name: "µM"
  test_value: 29
- molecule: "COc1ccc(Cc2nnc(NS(=O)(=O)c3ccc(NO)cc3)s2)cc1 [Compound 5]"
  unit_name: "µM"
  test_value: 149
- molecule: "COc1ccc(Cc2nnc(NS(=O)(=O)c3ccc(Cl)c(Cl)c3)s2)cc1 [Compound 8]"
  unit_name: "µM"
  test_value: 3160
- molecule: "COc1ccc(Cc2nnc(NS(=O)(=O)c3ccc(C)cc3)s2)cc1 [Compound 2]"
  unit_name: "µM"
  test_value: 73.3
- molecule: "Nc1ccc(S(=O)(=O)Nc2nnc(Cc3ccc(F)cc3)s2)cc1 [Compound 26]"
  unit_name: "µM"
  test_value: 24
- molecule: "Nc1ccc(S(=O)(=O)Nc2nnc(Cc3ccccc3)s2)cc1 [Compound 25]"
  unit_name: "µM"
  test_value: 58
- molecule: "Cc1ccc(Cc2nnc(NS(=O)(=O)c3ccc(N)cc3)s2)cc1 [Compound 22]"
  unit_name: "µM"
  test_value: 31
- molecule: "COc1ccc(Cc2nnc(NS(=O)(=O)c3ccc4ccccc4c3)s2)cc1 [Compound 30]"
  unit_name: "µM"
  test_value: 415

====

target_or_system: Human GGT1 (hGGT) (Homo sapiens, UniProt P19440)
method_summary: L-GpNA Transpeptidation Assay with GlyGly as acceptor
Assay type: biochemical
Set-up: lacking the transmembrane domain; made in house; host or cells: Pichia pastoris
condition_label: Table 6; read-out: GlyGly with L-GpNA Kis
Protocol: Transpeptidation Reaction: The same assay buffer was used for both the hydrolysis reaction and the transpeptidation reaction. The transpeptidation reaction included 40 mM glycylglycine (glygly, Sigma, St. Louis, Mo.) as the acceptor. […] The concentration of L-GpNA was 3 mM for experiments in which the concentration of glygly was varied. To initiate the transpeptidation reaction, 4 mU GGT were added. 1. […] 3 and 4. […] 5 (25). L-GpNA Transpeptidation Assay: The assay has been described previously. […]
pKi: −log10 of the molar value.
property: pKi

- structure_smiles_string: "COc1ccc(Cc2nnc(NS(=O)(=O)c3ccc4ccccc4c3)s2)cc1"
  test_value: 3.84

====

target_or_system: Human GGT1 (hGGT) (Homo sapiens, UniProt P19440)
method_summary: L-GpNA Transpeptidation Assay with GlyGly as acceptor
Type: biochemical
Design: lacking the transmembrane domain; made in house; host or cells: Pichia pastoris
condition_label: in the presence of 40 mM GlyGly; read-out: Kii of GSH vs L-GpNA
pKi: −log10 of the molar value.

- molecule: "N[C@@H](CCC(=O)N[C@@H](CS)C(=O)NCC(=O)O)C(=O)O [GSH, glutathione, reference compound]"
  pKi: 2.77

====

target_or_system: Human GGT1 (hGGT) (Homo sapiens)
method_summary: D-GpNA Hydrolysis Assay (release of pNA, 405 nm, pH 7.4)
condition_label: Hydrolysis D-GpNA; Table 3
Measured Vo (maximum velocity at zero activator), listed per entry.

- structure_smiles_string: "O=[N+]([O-])c1ccc(S(=O)(=O)Nc2nnc(Cc3ccc(F)cc3)s2)cc1"
  target_or_system: "Human GGT1 (hGGT) (Homo sapiens)"
  Vo (maximum velocity at zero activator) / mM/min/nM: 1.53
- structure_smiles_string: "O=[N+]([O-])c1ccc(S(=O)(=O)Nc2nnc(Cc3cccc(Cl)c3)s2)cc1"
  target_or_system: "Human GGT1 (hGGT) (Homo sapiens)"
  Vo (maximum velocity at zero activator) / mM/min/nM: 1.30
- structure_smiles_string: "O=[N+]([O-])c1ccc(S(=O)(=O)Nc2nnc(Cc3ccccc3)s2)cc1"
  target_or_system: "Human GGT1 (hGGT) (Homo sapiens)"
  Vo (maximum velocity at zero activator) / mM/min/nM: 1.59
- structure_smiles_string: "O=[N+]([O-])c1ccc(S(=O)(=O)Nc2nnc(Cc3ccc(Cl)cc3)s2)cc1"
  target_or_system: "Human GGT1 (hGGT) (Homo sapiens)"
  Vo (maximum velocity at zero activator) / mM/min/nM: 1.71

====

Measured CC50 at 72 h, listed per entry.
method_summary: Cytotoxicity in dividing 786-O cells (MTT assay, 72 hours)
Assay type: cell-based, human
condition_label: human, 786-o cells, dividing 786-O cells, 72 hours; read-out: LD50

- structure_smiles_string: "Cc1ccc(Cc2nnc(NS(=O)(=O)c3ccc(N)cc3)s2)cc1"
  CC50 at 72 h, µM: 727
- structure_smiles_string: "COc1ccc(Cc2nnc(NS(=O)(=O)c3cccc(Cl)c3)s2)cc1"
  CC50 at 72 h, µM: 382

====

target_or_system: Human GGT1 (hGGT) (Homo sapiens, UniProt P19440)
method_summary: D-GpNA Hydrolysis Assay (release of pNA, 405 nm, pH 7.4)
condition_label: Hydrolysis D-GpNA; Table 3
Procedure: Enzyme Isolation: Human GGT1 (P19440), lacking the transmembrane domain, was expressed in Pichia pastoris and isolated as previously described (14). […] The reaction was initiated with the addition of 19 mU GGT. The reaction was incubated at 37° C. and monitored continuously at 405 nm by a Bio-Rad model 680 microplate reader with Microplate Manager 5.2 software (Bio-Rad, Hercules, Calif.). […]
Measured Vo (maximum velocity at zero activator), listed per entry.
property: Vo (maximum velocity at zero activator) (mM/min/nM)

- structure_smiles_string: "O=[N+]([O-])c1ccc(Cc2nnc(NS(=O)(=O)c3ccc([N+](=O)[O-])cc3)s2)cc1"
  test_value: 1.27
- structure_smiles_string: "Cc1cccc(Cc2nnc(NS(=O)(=O)c3ccc([N+](=O)[O-])cc3)s2)c1"
  test_value: 1.15
- structure_smiles_string: "COc1ccc(Cc2nnc(NS(=O)(=O)c3ccc([N+](=O)[O-])cc3)s2)cc1"
  test_value: 1.59
- structure_smiles_string: "Cc1ccc(Cc2nnc(NS(=O)(=O)c3ccc([N+](=O)[O-])cc3)s2)cc1"
  test_value: 2.62

====

target_or_system: Human GGT1 (hGGT) (Homo sapiens, UniProt P19440)
method_summary: L-GpNA Transpeptidation Assay with GlyGly as acceptor
Type: biochemical
Set-up: lacking the transmembrane domain; made in house; host or cells: Pichia pastoris
condition_label: Table 4; read-out: GlyGly with L-GpNA Kis

- compound: "COc1ccc(Cc2nnc(NS(=O)(=O)c3ccc(N)cc3)s2)cc1 [Compound 21]"
  target_or_system: "Human GGT1 (hGGT) (Homo sapiens, UniProt P19440)"
  unit_name: "µM"
  Ki: 10

====

target_or_system: Human GGT1 (hGGT) (Homo sapiens, UniProt P19440)
method_summary: L-GpNA Transpeptidation Assay with GlyGly as acceptor
Assay type: biochemical
Set-up: lacking the transmembrane domain; made in house; host or cells: Pichia pastoris
condition_label: Table 3; read-out: Transpeptidation L-GpNA Kii
pKi: −log10 of the molar value.
property: pKi

- compound: "O=[N+]([O-])c1ccc(S(=O)(=O)Nc2nnc(Cc3cccc(Cl)c3)s2)cc1 [Compound 15]"
  property: "pKi"
  test_value: 3.92
- compound: "O=[N+]([O-])c1ccc(S(=O)(=O)Nc2nnc(Cc3ccc(Cl)cc3)s2)cc1 [Compound 16]"
  property: "pKi"
  test_value: 4.21
- compound: "O=[N+]([O-])c1ccc(Cc2nnc(NS(=O)(=O)c3ccc([N+](=O)[O-])cc3)s2)cc1 [Compound 14]"
  property: "pKi"
  test_value: 3.88
- compound: "Cc1cccc(Cc2nnc(NS(=O)(=O)c3ccc([N+](=O)[O-])cc3)s2)c1 [Compound 18]"
  property: "pKi"
  test_value: 3.92
- compound: "O=[N+]([O-])c1ccc(S(=O)(=O)Nc2nnc(Cc3ccccc3)s2)cc1 [Compound 13]"
  property: "pKi"
  test_value: 3.95
- compound: "Cc1ccc(Cc2nnc(NS(=O)(=O)c3ccc([N+](=O)[O-])cc3)s2)cc1 [Compound 17]"
  property: "pKi"
  test_value: 3.95
